- measurement-description: Extended room temperature storage of treprostinil monohydrate lot D-1007-089 (18-month stability summary: water content, assay/impurity profile)
- Assay type: physicochemical
- experimental-parameters: 12 Months, Container 1 (closed), room temperature
property-measured: Total impurities (%)
Numbers only, in %.

State the recorded Total impurities for this entry: CCCCC[C@H](O)CC[C@@H]1[C@H]2Cc3cccc(OCC(=O)O)c3C[C@H]2C[C@H]1O [TREPROSTINIL Lot# D-1007-089, treprostinil monohydrate]
0.5

###

- measurement-description: Extended room temperature storage of treprostinil monohydrate lot D-1007-089 (18-month stability summary: water content, assay/impurity profile)
- Type: physicochemical
- experimental-parameters: 2 Months, Container 1 (closed), room temperature
property-measured: Total impurities (%)
One number for each entry, in %.

State the recorded Total impurities for this entry: CCCCC[C@H](O)CC[C@@H]1[C@H]2Cc3cccc(OCC(=O)O)c3C[C@H]2C[C@H]1O [TREPROSTINIL Lot# D-1007-089, treprostinil monohydrate]
0.5

###

- measurement-description: Extended room temperature storage of treprostinil monohydrate lot D-1007-089 (18-month stability summary: water content, assay/impurity profile)
- Type: physicochemical
- experimental-parameters: 6 Months, Container 1 (closed), room temperature
property-measured: 751W93 (%)
One number for each entry, in %.

State the recorded 751W93 for this entry: CCCCC[C@H](O)CC[C@@H]1[C@H]2Cc3cccc(OCC(=O)O)c3C[C@H]2C[C@H]1O [TREPROSTINIL Lot# D-1007-089, treprostinil monohydrate]
0.04

###

- measurement-description: Extended room temperature storage of treprostinil monohydrate lot D-1007-089 (18-month stability summary: water content, assay/impurity profile)
- Assay type: physicochemical
- experimental-parameters: Initial, Container 1 (closed), room temperature
property-measured: Total impurities (%)
One number for each entry, in %.

State the recorded Total impurities for this entry: CCCCC[C@H](O)CC[C@@H]1[C@H]2Cc3cccc(OCC(=O)O)c3C[C@H]2C[C@H]1O [TREPROSTINIL Lot# D-1007-089, treprostinil monohydrate]
0.5

###

- measurement-description: Extended room temperature storage of treprostinil monohydrate lot D-1007-089 (18-month stability summary: water content, assay/impurity profile)
- Format: physicochemical
- experimental-parameters: 1 Month, Container 1 (closed), room temperature
property-measured: Total impurities (%)
Numbers only, in %.

State the recorded Total impurities for this entry: CCCCC[C@H](O)CC[C@@H]1[C@H]2Cc3cccc(OCC(=O)O)c3C[C@H]2C[C@H]1O [TREPROSTINIL Lot# D-1007-089, treprostinil monohydrate]
0.5

###

- measurement-description: Extended room temperature storage of treprostinil monohydrate lot D-1007-089 (18-month stability summary: water content, assay/impurity profile)
- Assay type: physicochemical
- experimental-parameters: 2 Months, Container 1 (closed), room temperature
property-measured: 750W93

State the recorded 750W93 for this entry: CCCCC[C@H](O)CC[C@@H]1[C@H]2Cc3cccc(OCC(=O)O)c3C[C@H]2C[C@H]1O [TREPROSTINIL Lot# D-1007-089, treprostinil monohydrate]
0.09%

###

- measurement-description: Extended room temperature storage of treprostinil monohydrate lot D-1007-089 (18-month stability summary: water content, assay/impurity profile)
- Assay type: physicochemical
- experimental-parameters: 6 Months, Container 2 (covered with Kimwipe), room temperature
property-measured: 750W93 (%)
Give bare numbers, in %.

State the recorded 750W93 for this entry: CCCCC[C@H](O)CC[C@@H]1[C@H]2Cc3cccc(OCC(=O)O)c3C[C@H]2C[C@H]1O [TREPROSTINIL Lot# D-1007-089, treprostinil monohydrate]
0.09
